# PROTOCOL TEXT: Kinetic aqueous solubility (KSol), HPLC-UV
# Assay type: physicochemical
# ASSAY CONTEXT: PBS buffer pH 7.4, 100 μM solution with 1% DMSO, HPLC with UV detection
REPORTED METRIC: KSol data (µM)
The figure you give is taken to be in µM; do not add the unit.

{"STRUCTURE SMILES STRING": "CCCOC(=O)c1sc(NC(=O)C[C@H](CCCN(C)CC#CCNC(=O)O[C@@H]2CC/C=C/CCC2)NC(=O)c2cccc(-c3noc(C)n3)c2)nc1C", "KSol data / µM": 1.1}

Req: In one line, give reported KSol data of the entry CCCOC(=O)c1sc(NC(=O)C[C@H](CCCN(C)CCOCCOCCNC(=O)O[C@@H]2CC/C=C/CCC2)NC(=O)c2cccc(-c3noc(C)n3)c2)nc1C .
Resp: 53

Req: In one line, give reported KSol data of the entry CCCOC(=O)c1sc(NC(=O)C[C@H](CCCN(C)C(=O)O[C@@H]2CC/C=C/CCC2)NC(=O)c2cccc(-c3noc(C)n3)c2)nc1C .
Resp: 1.8
